In this section we review reported growth inhibition values for a set of compounds.
method: NCI Yeast Anticancer Drug Screen. Data for the mlh1 rad18 strain (AID 175)
condition.parameters: S. cerevisiae mlh1 rad18 strain growth inhibition; at 50.0 µM; hits give high values
Compounds without any hit were thinned out: in the full panel of roughly 79,000, 15% have a hit.
All answers are understood in %, so give the number only.

Field: example entries. Status: answers known.
{"compound": "Cc1ccc(Cl)c2c1CC(=[N+]=[N-])C2=O", "growth inhibition [%]": 7.15}
{"compound": "Cc1ccc(S(=O)(=O)OCCN2CC2)cc1", "growth inhibition [%]": -12.7}
{"compound": "CC1CC(O)C(=O)C(O[C@@H]2C[C@@H]3CC[C@@H]4[C@H](CC[C@]5(C)C(C6=CC(=O)OC6)CC[C@]45O)[C@@]3(C=O)C[C@H]2O)O1 (some centres undefined)", "growth inhibition [%]": -42.9}

Turning now to a further compound:
Qu. Param item = CC1=CC2OC3CC4OC(=O)/C=C/C=C/C(=O)OCC/C(C)=C/C(=O)OCC2(CC1O)C4(C)C31CO1 (centres undefined) ; retrieve measured growth inhibition.
Ans. 90.9

* * *

method: NCI Yeast Anticancer Drug Screen. Data for the mlh1 rad18 strain (AID 175)
condition.parameters: S. cerevisiae mlh1 rad18 strain growth inhibition; at 50.0 µM; hits give high values
About 79,000 compounds went through this panel and 15% of them were active in at least one assay; those are over-represented in the sample as a whole.
recorded.metric: growth inhibition (%)
All answers are understood in %, so give the number only.

Field: example entries. Status: answers known.
{"compound": "Oc1ccccc1C=NCCN=Cc1ccccc1O", "quantity.unit": "%", "growth inhibition": 31.8}
{"compound": "COc1ccc2c3c1OC1C(O)C=CC4C(C2)N(N=O)CCC341 (stereo not drawn)", "quantity.unit": "%", "growth inhibition": 21.7}

Qu. Param item = CC1CCC2C(C)C(=O)OC3OC4(C)CCC1C32OO4 (stereo not drawn) ; retrieve measured growth inhibition.
Ans. 2.7

Qu. Param item = Fc1ccc(N=C=S)cc1 ; retrieve measured growth inhibition.
Ans. 2.2

Qu. Param item = c1ccc(CCN2CCCCC2)cc1 ; retrieve measured growth inhibition.
Ans. 33.9

* * *

method: NCI Yeast Anticancer Drug Screen. Data for the mec2-1 strain (AID 157)
condition.parameters: S. cerevisiae mec2-1 strain, at 50.0 µM, hits give high values
The panel holds about 79,000 compounds, 15% with a hit somewhere; the sample as a whole holds those more often.
recorded.metric: growth inhibition (%)
All answers are understood in %, so give the number only.

Field: example entries. Status: answers known.
{"molecule": "COC(=O)CCCCCCCCCCN(CCCl)CCCl", "recorded.metric": "growth inhibition", "recorded.result": 29.1}
{"molecule": "CC(C)(C)c1cc2c(=O)o[s+]3oc(=O)c(c1)c23", "recorded.metric": "growth inhibition", "recorded.result": -8.75}
{"molecule": "Nc1nnnn1CCO", "recorded.metric": "growth inhibition", "recorded.result": -13}
{"molecule": "C[n+]1ccccc1-c1ccc[n+](CCCCC[n+]2cccc(-c3cccc[n+]3C)c2)c1", "recorded.metric": "growth inhibition", "recorded.result": -8.6}
{"molecule": "CC(=N/O)/C(C)=N\\O", "recorded.metric": "growth inhibition", "recorded.result": 14.8}

Qu. Param item = CCOP12(OCC)NC(=O)OC1(C(F)(F)F)c1ccccc1O2 (configuration not stated) ; retrieve measured growth inhibition.
Ans. 3.9
